- TEST_DETAILS: chemical genetic growth profiling, strain panel (AID 1159580);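 note: tested at 20 µM; growth read once vehicle control cultures reached saturation at 30 °C; lower values mean less growth of the strain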
- SETTINGS: S. cerevisiae deletion strains, growth OD, locus YKL085W, strain MDH1
Out of some 5,500 compounds screened, about 2,000 (36%) were called active. About 18% were inconclusive and are not listed. Cut-off read from the data, not from the text of the source: active = normalized growth mostly below about 0.91 (no sharp cut-off); inconclusive = no clear call, values can overlap the other calls; inactive = mostly above about 0.92. Some of the results follow.
Choose one outcome from this list and give only that: True = active, False = inactive

MOLECULE	CLASS_LABEL
Cc1ccc(N(CC2=NCCN2)c2cccc(O)c2)cc1	False
Cc1cc(C(C)(C)C)cc(C)c1CC1=NCCN1	False
COc1ccc2c(c1)[C@]13CCCC[C@H]1[C@H](C2)N(C)CC3	False
Cc1cc(=O)n(-c2ccccc2)n1C	False
COc1cc(O)cc(OC)c1OC	False
O=C(O)c1cc([N+](=O)[O-])ccc1NCCCc1ccccc1	True
C=C(C)[C@H]1Cc2c(ccc3c2O[C@@H]2COc4cc(OC)c(OC)cc4[C@@H]2C3=O)O1	False
CCOc1ccc(NC(C)=O)cc1	False
COc1cc2c(cc1O)CCNC2C (centres undefined)	False
COc1ccc([C@H]2COc3c(ccc(O)c3OC)C2)c(OC)c1O	False

Here is another molecule to look at.
(Q) What outcome does the record of this test show for "Cc1cc(C(C)(C)C)c(O)c(C)c1CC1=NCCN1" ?
(A) False
